These measurements were taken from PubChem BioAssay AID179.

Test system: CEM cells HIV-1 protection, formazan growth assay
Experiment: NCI AIDS Antiviral Assay
Known EC50 of a selection of compounds
propertyLabel: EC50

In [3]: df
Out[3]:
                                    compound  propertylabel  recordedmeasurement
 0             CN1COc2c(n(C)c(=O)[nH]c2=O)C1           EC50             > 200 µM
 1  CC1(C)C(=O)C2(N)CCC1C2 (stereo not drawn)           EC50             > 200 µM
 2                   CC1(C)COP(Oc2ccccc2)OC1           EC50             > 200 µM
 3  C=CCc1c(C(O)CNC(C)C)ccc(OC)c1OCc1ccccc1 (stereo not drawn)           EC50             > 200 µM
 4                CS(=O)(=O)CSCSSCS(C)(=O)=O           EC50             > 427 µM
 5           Cn1cnc([N+](=O)[O-])c1Sc1ncccn1           EC50            > 1050 µM
 6        N=C1/C(=C/c2ccco2)C(=O)N=C2SC=NN12           EC50             > 200 µM
 7  CN1C(=O)C2CCCC(=O)N2c2cccnc21 (stereo not drawn)           EC50             > 200 µM
 8  O=C1NC(O)CCN1C1OC(CO)C(O)C1O (stereo not drawn)           EC50             > 200 µM
 9               CC1(C)N=C(/C=N/O)C(C)(C)N1O           EC50             > 200 µM
10        CCN(CC)CC(=O)NC1c2ccccc2Oc2ccccc21           EC50             > 219 µM
11  C=C1CN(S(=O)(=O)c2ccc(C)cc2)CCCN(C(C)C)CCCN(S(=O)(=O)c2ccc(C)cc2)C1           EC50             > 200 µM
12  CCOC(=O)C(C(C)=O)C(c1ccc(N(C)C)cc1)C(C(C)=O)C(=O)OCC (stereo not drawn)           EC50             > 200 µM
13  O=C(/C=C/c1ccc(O)c(O)c1)NC(CO)C(=O)O (stereo not drawn)           EC50             > 200 µM
14               CCCCCCCCCCCCCCCCN1CCCCCC1=O           EC50            > 77.6 µM
15  CS(=O)(=O)O/N=c1/cc(-c2ccccc2)oc2ccccc12           EC50             > 200 µM
16  c1ccc(-c2nnc(-c3ccccn3)c3c2C[C@@H]2C[C@@H]4Cc5c(-c6ccccn6)nnc(-c6ccccn6)c5[C@@H]4[C@H]32)nc1           EC50             > 200 µM
17  O=C1Nc2ccccc2/C1=C/c1cc(Cl)cc(Cl)c1O (tested in a mixture with another compound)           EC50             > 200 µM

---

System: CEM cells HIV-1 protection, formazan growth assay
Test: NCI AIDS Antiviral Assay
Details: measured here: growth of uninfected CEM cells
pIC50: −log10 of the molar value.
Rule: True for pIC50 not less than 4, False for anything less.

compound	discreteLabel
N#C/C(=C\c1ccc(O)c(O)c1)C(N)=O	True
CCn1c(O)c(C=Nc2ccccc2)s/c1=N/Nc1nc(C)c(C(C)=O)s1	False
CCOC(=O)C/C(C)=N\NC(=O)c1ccncc1	False
c1ccc(-c2nnc(-c3ccccn3)c3c2C[C@@H]2C[C@@H]4Cc5c(-c6ccccn6)nnc(-c6ccccn6)c5[C@@H]4[C@H]32)nc1	False
COc1ccc2c(c1)CCN=C2Cc1ccccc1CCCl	True
Cc1cc2c(C(C)C)c(O)c(O)c(C=NCC3CCCN4CCCCC34)c2cc1-c1cc2c(C=NCC3CCCN4CCCCC34)c(O)c(O)c(C(C)C)c2cc1C (configuration not stated)	True
O=C(Nc1ccc(Br)cc1)c1cc(Br)ccc1O	True
O=C(O)c1cc(C(=CCCBr)c2cc(Cl)c(O)c(C(=O)O)c2)cc(Cl)c1O	False
c1csc(-c2cc(-c3ccsc3)c(-c3ccsc3)s2)c1	False
CC1C(O)O[C@@H]2O[C@@]3(C)CC[C@H]4[C@H](C)CC[C@@H]1[C@@]24O3 (some centres not stated)	False
Cc1ccccc1C1(Br)C(=O)c2ccccc2C1=O	True
N#Cc1ccc(N=NN2CCCC2)cc1	True
NC1=NN(c2ccccc2)C(=O)C1C(=O)C(=O)Nc1ccc(Cl)c(Cl)c1 (configuration not stated)	False
Cc1nc2ccc(S(=O)(=O)Nc3ccccc3Cl)cc2c(=O)n1NC(=O)CNc1ccccc1Cl	False
CN1C(=O)N/C(=C\c2ccc(S(=O)(=O)NN)cc2)C1=O	False
O=C(c1ccccc1)N1C(=S)N=C(Nc2ccccc2)C1=Nc1ccccc1	False
CCCN(CCC)CC(=O)Nc1cccc(Cl)c1C	True
COC(=O)CC(SCCO)SCCO	False
COc1cc(NC=O)c2c(c1)SC(c1ccccc1)C(=O)N2 (configuration not stated)	True
CCN(CC)CCCC(C)Nc1cc(-c2ccccc2)nc2cc(OC)ccc12 (configuration not stated)	True
CC(NC(=O)OC(C)(C)C)C(=O)NC(Cc1ccccc1)C(=O)NCC(=O)ON=C1CCCC1 (configuration not stated)	True
C=CCOc1cccc(C2(O)c3ccccc3C3=NCCCN32)c1 (configuration not stated)	True
Cc1cn(COCCS(=O)c2ccccc2)c(=O)[nH]c1=O (configuration not stated)	False

---

System: CEM cells HIV-1 protection, formazan growth assay
Experiment: NCI AIDS Antiviral Assay;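 active means compounds giving half or more protection of infected cells from virus-caused growth loss, again on retest; inactive means the rest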
Outcomes: active, inactive

molecule	discreteLabel
Cc1c(C)c(C)c(-n2c(=O)n(C)c(=O)n2-c2cc(C(C)(C)C)cc(C(C)(C)C)c2O)c(C)c1C	inactive
c1ccc2cc3c(cc2c1)Cn1c-3nc2ccccc21	inactive
Cc1sc(C)c2c1C(=O)CC2N (stereo not given)	inactive
COc1ccc2c(c1)CCc1cnoc1-2	inactive
CC1(O)C=CC(=O)C=C1	inactive
CC(=O)OC1Cn2ccc[n+]2C1 (stereo not given)	inactive
Cc1cc(-c2ccc(N=Nc3ccc4c(S(=O)(=O)[O-])cc(S(=O)(=O)[O-])c(N)c4c3O)c(C)c2)ccc1N=Nc1ccc2c(S(=O)(=O)[O-])cc(S(=O)(=O)[O-])c(N)c2c1O.[Ga]	active
NC(CSSCC(N)=NC1CCCCC1)=NC1CCCCC1	inactive
Cc1ccc2c(c1)C=CC1(O2)N(c2ccccc2)C(=S)OC1(C)C (stereo not given)	inactive
C=CCN1CCC(C(=O)CC)(c2ccccc2)CC1	inactive
O=C(O)CCN1CCN(CCC(=O)O)CCN(CCC(=O)O)CC1	inactive
CCOC(=O)CN(c1sc(C)c(-c2ccccc2)c1C(=O)OCC)S(=O)(=O)c1ccc(C)cc1	inactive
O=C(Nc1nc2c(=O)[nH]cnc2s1)c1ccccc1	inactive
O=C(NC(Cc1c[nH]c2ccccc12)C(=O)O)/C(=C/c1ccccc1)NC(=O)c1ccccc1 (stereo not given)	inactive
NC(=O)c1ncn(C2OC(CO)C(O)C2O)c1NC(=S)NC(=O)c1ccccc1 (stereo not given)	inactive

---

Tested on: CEM cells HIV-1 protection, formazan growth assay
Experiment: NCI AIDS Antiviral Assay
Settings: measured here: growth of uninfected CEM cells
pIC50: −log10 of the molar value.
Known pIC50 of a selection of compounds
propertyLabel: pIC50

In [3]: df
Out[3]:
                                    compound  recordedmeasurement
 0       COc1ccc(-c2oc3ccc(C)cc3c(=O)c2O)cc1               < 4.28
 1  COC(=O)[C@H]1[C@H]2C[C@@H]3c4[nH]c5cccc(OC)c5c4CCN3C[C@H]2CC[C@H]1O               < 3.70
 2  CCOC(=O)C1=C(C)N(NC(=O)OC)C2(N)N(NC(=O)OC)C(C)=C(C(=O)OCC)C12C#N (configuration not stated)               < 3.27
 3  Cc1noc2c1N=C(c1cccs1)CC(c1c(Cl)cccc1Cl)C2 (configuration not stated)               < 4.72
 4  CC(C)OP(=O)(OC(C)C)C(=Nc1ccc(N=C(NNc2ccc([N+](=O)[O-])cc2)P(=O)(OC(C)C)OC(C)C)cc1)NNc1ccc([N+](=O)[O-])cc1               < 5.45
 5  CCCC(O)c1ccc2[nH]c3c(C)cc([N+](=O)[O-])c(C)c3c2c1 (configuration not stated)               < 5.33
 6  N#C/C(=C1/Sc2c(nc[nH]c2=O)N1c1ccccc1)c1nc2ccccc2[nH]1               < 5.42
 7  CCCCCCCCCCCCCCNC1=C(OC)C(=O)C(NCCCCCCCCCCCCCC)=C(OC)C1=O               < 4.10
 8  CCCCn1c(-c2ccccc2)cs/c1=N\N=C1C=C(C(C)(C)C)C(=O)C(C(C)(C)C)=C1               < 4.80
 9             COC(=O)c1sc2c(Cl)c(Cl)sc2c1Cl               < 4.30
10  COc1ccc2c3c1OC1C4(CCC5C(C2)N(CC2CC2)CCC351)OCCO4 (configuration not stated)               < 3.89
11  C=CCn1c(=N)/c(=C(\N)O)s/c1=C1/SC(=S)N(c2ccc(C)cc2)C1=O               < 5.17
12  Cn1nc(-c2ccccc2)c(C(=O)/C=C/c2ccc(Cl)cc2)c(N2CCCCC2)c1=O               < 4.75
13             CS(=O)(=O)c1nc(N)nc2nc[nH]c12               < 3.70
14                 CN(/N=C/c1ccccn1)C1=NCCN1               < 3.70
15  CC1CNC(c2ccc(NC(=O)Nc3cc(C(=O)Nc4ccc(C5=NC(C)CN5)cc4)ccc3C(=O)Nc3ccc(C4=NC(C)CN4)cc3)cc2)=N1 (configuration not stated)               < 4.00
16  Cc1ccc(N=C2C(=Nc3ccc(C)cc3)N(c3ccc(C)cc3)C(=S)N2C(=O)c2ccccc2)cc1               < 3.70
